Values from the nanobody polyreactivity screen of Harvey et al. (2022)

- PROTOCOL_SUMMARY: yeast display, Sf9 membrane polyspecificity reagent, FACS + sequencing; frameworks hold sequencing errors
MEASUREMENT_KIND: polyreactivity (PSR sort gate)

* QVQLVESGGGLVQAGGSLRLSCAASGRTIRENVMGWYRQAPGKERELVAAITGNDGTTYYADSVKGRFTISRDNAKNTVYLQMNSLKPEDTAVYYCAARPYLGYIGYDYWGQGTQVTVSS | low polyreactivity
* QVQLVESGGGLVQAGGSLRLSCAASGRLFGAYGMGWYRQAPRKERELVAAISNGGRTSYADSVKGRFTISRDNAKNTVYLQMNSLKPEDTAVYYCAAVYWPWYGAYDYWGQGTQVTVSS | high polyreactivity
* QVQLVESGGGLVQAGGSLRLSCAASGLIFYDNMGWYRQAPGKERELVAAISSSGGSTSYADSVKGRFTISRDNAKNTVYLQMNSLKPEDTAVYDSAADSYPAYLGFVGFDYWGQGTQVTVSS | low polyreactivity
* QVQLVESGGGLVQAGGSLRLSCAASGRIFSRYAMGWYRQAPGKERELVAAISCNGCSTYYADSVKGRFTISRDNAKNTVYLQMNSLKPEDTAVYYCAAYRPGPYAAYGYWGQGTQVTVSS | high polyreactivity
* QVQLVESGGGLVQAGGSLRLSCAASGNTFYAYAMGWYRQAPGKERELVAAIARGGNTYYADSVKGRFTISRDNAKNTVYLQMNSLKPEDTAVYYCNAYYPIRSSPYGYYYWGQGTQVTVSS | high polyreactivity
* QVQLVETGGGLVQAGGSLRLSCAASGFTFGSNAMGWYRQAPGKEREFVAAITYSGGGTYADSVKGRFTISRDNAKHTVDLQMNSLKPEDTAVYYCATDAYRWHYWNFGFGYWGQGTQVTVSS | high polyreactivity
* QVQLVESGGGLVQAGGSLRLSCAASGRTFVEYAMGWYRPAPGKERELVAAITWDGGSTYYADSVKGRFTISRDNAKYTVYLQMNSLKPEDTAVYYCNADYRQITSYGFDYWGQGTQVTVSS | low polyreactivity
* QVQLVESGGGLVQAGGSLRLSCAASGFTFFKYAMGGYRQAPGKERELVAAITRNGGRTYYADSVKGRFTISRDNAKNTVYLHMNSLKPEDTAVYYCNAASVNGGRDFDYWGQGTQVTVSS | high polyreactivity
* QVQLVESGGGLVQAGGSLRLSCAASGFTFQYYAMGWYIQAPGKERELVATITTSGGNTYYADSVKGRFTISRDNAKNTVYLQMNSLKPEDTAVYYCAARRYRASSRGYGYWGQGTQVTVSS | high polyreactivity
* QVQLVESGGGLVQAGGSLRLSCAASGRIIYSNAMGWYRQAHGKERELVASISPNTGTTYYADSVKGRFTISLDNAKNTVYLQMNSLKPEDTAVYYCAARGGYYQDGLVTGEAEYGYWGQGTQVTVSS | low polyreactivity
* QVQLVESGGGLVQAGGSLRLSCAASGSTLATYTMGWYRQAPGKERELVAAISFGGSTYYADSVKGRFTISRDNAKNTVYLQMNSLKPEDTAVYYCAVYGDSYWGAYYYSDGYWGQGTQVTVSS | low polyreactivity
